Tested on: P94_40
Assay: qHTS profiling for inhibitors of Plasmodium falciparum proliferation (AID 504749); also: nearly all actives have a fitted effect of over 60% in size
Details: P. falciparum in erythrocytes, SYBR Green DNA, 72 h; series mostly up to 28.7 µM
Procedure: NIH National Institute of Allergy and Infectious Diseases [NIAID] NIH Chemical Genomics Center [NCGC] […] Because mature erythrocytes lack DNA, only Plasmodium-derived DNA is detected. NCGC Assay Protocol Summary: The SYBR Green viability assay was adapted from a method described previously (Plouffe et al., 2008). […] The following morning, fluorescence intensity at 485(14) nm excitation and 535(25) nm emission wavelengths was measured on an EnVision (Perkin Elmer) plate reader. […]
Inconclusive results are not listed. Active and inactive are the calls of the source. Calls follow the shape of the dose curve; as a rule, active = well fitted inhibition curve with a large enough effect; inconclusive = small, poorly fitted or top-dose-only effect; inactive = flat fitted curve, though single readings scatter. Peptide text beside a SMILES is read from it.
Choose one outcome from this list and give only that: active, inactive

[
  {
    "COMPOUND": "CNC[C@@H](O)[C@@H](O)[C@H](O)[C@H](O)CO",
    "CLASS": "inactive"
  }
]

input: Give the logged outcome of this assay for the following compound: CN1C(C(=O)Nc2ccccn2)=C(O)c2sccc2S1(=O)=O
output: inactive

input: Test call, this compound: C=C(c1ccc(C(=O)O)cc1)c1cc2c(cc1C)C(C)(C)CCC2(C)C
output: inactive

input: Tell me the assay call for Cc1ccc(NC(=O)c2ccc(CN3CCN(C)CC3)cc2)cc1Nc1nccc(-c2cccnc2)n1 please.
output: active

input: Dear colleague, could you share the recorded outcome for COC(=O)[C@H](Cc1ccccc1)NC(=O)[C@@H](N)CC(=O)O (H-Asp-Phe-OMe) when you have a moment?
output: inactive

input: Hello, I am checking results. What call was entered for N=C(N=C(N)N)N1CCOCC1 ?
output: inactive

input: Each compound tested received a call. Report the one for Cc1cc(=O)oc2cc(O)ccc12 .
output: inactive

input: Query: recorded result category for CCCCCCCCCCCCCCCCCCCCCCO in this test
output: inactive

input: // outcome(item) with item = CC(C)(S)[C@@H](N)C(=O)O
output: inactive

input: Status in this test for CCCCc1ccc2nc(NC(=O)OC)[nH]c2c1 ?
output: inactive

input: Test call for this compound, please: Nc1cc(C(Cl)=C(Cl)Cl)c(S(N)(=O)=O)cc1S(N)(=O)=O
output: inactive

input: For Cc1ncc([N+](=O)[O-])n1CC(C)O (configuration not stated) , which call appears in the assay record?
output: inactive

----------
Assay: qHTS of pediatric cancer cell lines to identify multiple opportunities for drug repurposing: Primary screen for SK-N-MC cells (AID 1347093)
Conditions: SK-N-MC viability, CellTiter-Glo luminescence, 48 h; series mostly up to 46 µM
Records with an inconclusive call do not appear. Calls of active or inactive are those of the source. Calls follow the shape of the dose curve; as a rule, active = well fitted cell-killing curve with a large enough effect; inconclusive = small, poorly fitted or top-dose-only effect; inactive = no such curve, though single readings can be large or run the other way.
Answer with one of the outcomes active, inactive

[
  {
    "SAMPLE_SMILES": "C[C@H](Cc1ccc(O)c(O)c1)[C@@H](C)Cc1ccc(O)c(O)c1",
    "CLASS": "active"
  },
  {
    "SAMPLE_SMILES": "CN(C)CCc1c[nH]c2ccc(Cn3cncn3)cc12",
    "CLASS": "inactive"
  },
  {
    "SAMPLE_SMILES": "NCCCCNCCCN",
    "CLASS": "active"
  },
  {
    "SAMPLE_SMILES": "CCOc1cc(CC(=O)N[C@@H](CC(C)C)c2ccccc2N2CCCCC2)ccc1C(=O)O",
    "CLASS": "active"
  },
  {
    "SAMPLE_SMILES": "CNC[C@@H](O)[C@@H](O)[C@H](O)[C@H](O)CO",
    "CLASS": "active"
  }
]

Now take the following compound into account.
input: Per the records of this test, what outcome belongs to O=c1oc2cc(O)ccc2s1 ?
output: active

----------
Assay: Quantitative High-Throughput drug screen in 47 multiple myeloma cell lines against the NCATS MIPE library collection: SKMM1_PLB cell viability assay (AID 1919863); also: nearly all actives have a fitted effect of over 35% in size
Conditions: SKMM1 myeloma viability, CellTiter-Glo ATP, 48 h; active compounds read low
Records with an inconclusive call do not appear.
Listed below: viability values for each entry.
Answer in %, number only, no unit symbol.

Recorded viability, per entry:
[
  {
    "COMPOUND": "CCCc1cc(=O)[nH]c(=S)[nH]1",
    "RESULT_UNITS": "%",
    "viability": 115
  },
  {
    "COMPOUND": "CC1=C(C)C(=O)C(C(CCCCCC(=O)O)c2ccccc2)=C(C)C1=O (configuration not stated)",
    "RESULT_UNITS": "%",
    "viability": 86.2
  },
  {
    "COMPOUND": "S=c1nc[nH]c2nc[nH]c12",
    "RESULT_UNITS": "%",
    "viability": 104
  },
  {
    "COMPOUND": "CC(C)(S)[C@@H](N)C(=O)O",
    "RESULT_UNITS": "%",
    "viability": 133
  },
  {
    "COMPOUND": "c1ccc2[nH]c(-c3cscn3)nc2c1",
    "RESULT_UNITS": "%",
    "viability": 120
  },
  {
    "COMPOUND": "CN1CCC(=C2c3ccccc3CCc3sccc32)CC1",
    "RESULT_UNITS": "%",
    "viability": 99.6
  }
]

input: So what's the measured viability for this one? NNc1nncc2ccccc12
output: 116

input: State the recorded viability for this entry: CCCCC(CC)COC(=O)C(C#N)=C(c1ccccc1)c1ccccc1 (configuration not stated)
output: 130

input: Looking for the measured viability of CCOC(=O)C1=C[C@@H](OC(CC)CC)[C@H](NC(C)=O)[C@@H](N)C1 , can you help?
output: 108

input: Can you look up the measured viability of O=C(c1ccccc1)c1ccc2n1CCC2C(=O)O (configuration not stated) for me?
output: 105

input: Item NC(=NCc1ccccc1)NC(=O)c1nc(Cl)c(N)nc1N has what recorded viability?
output: 140

input: Value lookup for viability; key = CN(c1nccc(=O)[nH]1)C1CCN(c2nc3ccccc3n2Cc2ccc(F)cc2)CC1
output: 125

----------
Test system: CP305
Test: qHTS profiling for inhibitors of Plasmodium falciparum proliferation (AID 504749); also: nearly all actives have a fitted effect of over 60% in size
Conditions: P. falciparum in erythrocytes, SYBR Green DNA, 72 h; series mostly up to 28.7 µM
Results filed as inconclusive are left out. The source made the active and inactive calls. Calls follow the shape of the dose curve; as a rule, active = well fitted inhibition curve with a large enough effect; inconclusive = small, poorly fitted or top-dose-only effect; inactive = flat fitted curve, though single readings scatter.
Returns: one label drawn from active, inactive

Field: example entries. Status: answers known.
[
  {
    "COMPOUND": "CC(C)[C@H](N)C(=O)OCCOCn1cnc2c(=O)[nH]c(N)nc21",
    "TESTED_TARGET": "CP305",
    "CLASS": "inactive"
  },
  {
    "COMPOUND": "Cc1ncc([N+](=O)[O-])n1CC(C)O (configuration not stated)",
    "TESTED_TARGET": "CP305",
    "CLASS": "inactive"
  },
  {
    "COMPOUND": "COc1ccc(C2(C#N)CCC(C(=O)O)CC2)cc1OC1CCCC1 (configuration not stated)",
    "TESTED_TARGET": "CP305",
    "CLASS": "inactive"
  },
  {
    "COMPOUND": "O=C(O)c1cc(=O)c2c(OCC(O)COc3cccc4oc(C(=O)O)cc(=O)c34)cccc2o1",
    "TESTED_TARGET": "CP305",
    "CLASS": "inactive"
  },
  {
    "COMPOUND": "CCCc1cc(=O)[nH]c(=S)[nH]1",
    "TESTED_TARGET": "CP305",
    "CLASS": "inactive"
  },
  {
    "COMPOUND": "C=CCc1cc(OC)c(O)c(C(=O)NCCO)c1",
    "TESTED_TARGET": "CP305",
    "CLASS": "inactive"
  },
  {
    "COMPOUND": "N=C(N=C(N)N)N1CCOCC1",
    "TESTED_TARGET": "CP305",
    "CLASS": "inactive"
  },
  {
    "COMPOUND": "COC1=C(OC)C(=O)C(CCCCCCCCCCO)=C(C)C1=O",
    "TESTED_TARGET": "CP305",
    "CLASS": "inactive"
  }
]

input: // return assay outcome for COc1cc(OC)c(C(=O)CCCN2CCCC2)c(OC)c1
output: inactive

input: How did this test come out for CC1(C)NC(=O)N(c2ccc([N+](=O)[O-])c(C(F)(F)F)c2)C1=O ?
output: inactive

input: Field: outcome | Entry: C[Se]CCC(N)C(=O)O (configuration not stated)
output: inactive

input: Name the outcome recorded for Cc1cc(C2CCCCC2)n(O)c(=O)c1 in the assay.
output: active

Values from PubChem BioAssay (NCATS)
